This collection of values is drawn from PubChem BioAssay (NCI).

# TGI values compiled below
system: OVCAR-4 ovarian; assay: NCI tumour cell line growth inhibition, 48 h

{"columns": ["compound", "TGI"],
 "data": [
  ["NCCc1cc(O)c(O)cc1O", "25.6 µM"],
  ["COc1ccc(-c2nsc3c2NC(=O)CC3c2cccc(OC)c2)cc1 (stereo not given)", "> 100 µM"],
  ["CS/C(=C(\\S)c1ccccc1)c1ccccc1", "> 100 µM"],
  ["COc1ccc2c(c1)CCCN2CCCCCCCCCCN(CCC(C)C)CCC(C)C", "19.4 µM"],
  ["CCCCCCCN=C(N)c1ccc(N2CCN(c3ccc(C(N)=NCCCCCCC)cc3)CC2)cc1", "> 13.2 µM"],
  ["CC(C)=CCc1cc(O)cc2c1OC(C=C(C)C)C1=C2C(=O)C2=C(C1=O)S(=O)(=O)CCN2 (stereo not given)", "6.72 µM"],
  ["Cc1cc(/N=C/c2ccc(F)cc2)n(-c2ccccc2)n1", "> 100 µM"],
  ["Cn1cc(-c2csc(-c3c[nH]c4ccc(Br)cc34)n2)c2cnccc21", "5.71 µM"],
  ["C[N+](C)(C)CC1CCC/C1=N\\OC(=O)c1ccccc1 (stereo not given)", "> 100 µM"],
  ["CCc1nc(N)nc(N)c1-c1ccc([N+](C)(C)C)cc1", "> 100 µM"],
  ["CN(C)/N=C1/CCC(C(F)(F)F)(C(F)(F)F)O1", "> 100 µM"],
  ["C=CCN1CCC(O)(c2cc(C(=O)OCC)[nH]c2-c2cc(C)no2)C1 (stereo not given)", "> 100 µM"],
  ["Cn1c2c(c3ccccc31)CCN1C(=O)CN(C(=O)C3CCCCC3)CC21 (stereo not given)", "> 100 µM"],
  ["O=S(=O)(c1ccccc1)N1N=C2c3ccccc3CCC[C@H]2C1c1ccccc1 (stereo not given in full)", "> 100 µM"],
  ["O=C(CC(C(=O)c1ccsc1)c1ccccc1)c1ccccc1 (stereo not given)", "75.9 µM"],
  ["CC(C)=CCC/C(C)=C/CC/C(C)=C/CC(CO)N(C)CC/C=C(\\C)CCC=C(C)C (stereo not given)", "22.4 µM"],
  ["CC1=C(/C=C/C(C)=C/C=C/C(C)=C/C(=O)OC2CC(n3cc(F)c(=O)[nH]c3=O)OC2CO)C(C)(C)CCC1 (stereo not given)", "21.5 µM"],
  ["COc1ccc(C[C@H]2COC(=O)[C@@H]2Cc2cccc(Br)c2)cc1OC", "58 µM"],
  ["C=CCN1CCC23c4c5ccc(O)c4OC2C(=NN=C2CCC4(O)C6Cc7ccc(O)c8c7C4(CCN6CC=C)C2O8)CCC3(O)C1C5 (stereo not given)", "40.8 µM"],
  ["Nc1ccn([C@H]2CO[C@@H](CO)[C@@H]2O)c(=O)n1", "> 100 µM"],
  ["CN(C)c1ccc(N=Nc2ccccn2)c(O)c1", "24.6 µM"],
  ["O=C(NNc1ccccc1)C(=O)NNc1ccccc1", "> 100 µM"],
  ["CN(C)CCNC(=O)c1cccc2ccc(-c3ccc(F)cc3)nc12", "18.3 µM"],
  ["COC(=O)C(C(=O)Cc1ccccc1[N+](=O)[O-])C(=O)OC", "> 100 µM"],
  ["CSc1ccccc1C#C/C=C\\C#Cc1ccccc1N", "71 µM"],
  ["COC(=O)c1s/c(=N\\C(=S)N(C)C)n(-c2ccc(Cl)cc2)c1C(=O)OC", "> 100 µM"],
  ["COC(=O)c1cc2c(s1)-c1nccc3c1c(nc1ccccc13)C2=O", "> 100 µM"],
  ["Cc1nn(C(=O)CC(=O)Nc2ccc(Cl)cc2)c(C)c1N=Nc1ccccc1C(=O)O", "> 100 µM"],
  ["O=[N+]([O-])c1cccc2ccc(N/N=C/c3ccccc3O)nc12", "> 100 µM"],
  ["CC1CN=C(N(C(=O)Nc2ccccc2)c2ccc(Cl)c(Cl)c2)S1 (stereo not given)", "> 100 µM"],
  ["COc1cc(/C=C/C(=O)c2cccc(-n3cc(-c4ccc(Cl)cc4)[nH]c3=O)c2)ccc1O", "> 23.7 µM"],
  ["CC(=O)N1CCC(=O)/C(=C/c2ccccc2)C1", "37.8 µM"],
  ["Cn1cnnc1Sc1c([N+](=O)[O-])ncn1C", "> 100 µM"],
  ["COc1ccc(C(C#N)NNC(=O)Cc2ccccc2)cc1OC (stereo not given)", "> 100 µM"],
  ["COc1cc2c(cc1OC)C1C[C@]3(CCN1CC2)C(=O)N(c1ccccc1)C(=O)N3C(C)=O (stereo not given in full)", "> 200 µM"]
]}
